Hello, the source for this data is patent US20180057604A1, in case you need it.

experimental.system: T1, murine BACE1 ECD
T1 construct: analyte of the Octet assay (200 nM) and enzyme of the first short substrate assay
T1 sequence (single chain, as listed by the source limits assumed): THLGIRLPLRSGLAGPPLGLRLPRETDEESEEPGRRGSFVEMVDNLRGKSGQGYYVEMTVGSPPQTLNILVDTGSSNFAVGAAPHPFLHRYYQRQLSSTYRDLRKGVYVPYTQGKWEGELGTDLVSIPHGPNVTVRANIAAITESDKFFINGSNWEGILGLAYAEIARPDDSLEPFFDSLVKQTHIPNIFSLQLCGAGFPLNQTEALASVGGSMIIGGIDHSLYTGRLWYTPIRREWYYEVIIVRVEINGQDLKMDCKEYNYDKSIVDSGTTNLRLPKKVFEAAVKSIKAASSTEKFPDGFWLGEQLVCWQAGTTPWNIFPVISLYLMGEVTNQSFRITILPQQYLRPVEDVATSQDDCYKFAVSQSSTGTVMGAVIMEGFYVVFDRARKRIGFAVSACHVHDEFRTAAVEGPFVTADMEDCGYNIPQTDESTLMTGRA
assay.overview: Octet, pH 7.5;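 further: antibodies captured on anti-human capture sensor tips, dissociation monitored in PBS with BSA, Kd obtained from kinetic fit to a one-to-one binding model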
pKd: −log10 of the molar value.
assay.readout: pKd

[in] Assign pKd to the following record: 6279 (antibody, V domains shown, anti-BACE1 IgG) VH: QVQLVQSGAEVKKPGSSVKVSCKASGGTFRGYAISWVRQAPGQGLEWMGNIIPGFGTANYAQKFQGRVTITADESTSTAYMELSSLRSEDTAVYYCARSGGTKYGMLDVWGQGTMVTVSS VL: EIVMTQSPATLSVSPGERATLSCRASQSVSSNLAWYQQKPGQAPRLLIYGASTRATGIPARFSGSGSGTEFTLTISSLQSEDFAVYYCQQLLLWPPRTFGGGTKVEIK
[out] > 9.34

[in] Assign pKd to the following record: 6288 (antibody, V domains shown, anti-BACE1 IgG) VH: QLQLQESGPGLVKPSETLSLTCTVSGGSTSSSSYYWGWIRQPPGKGLEWIGSIYRSGSTYYNPSLRSRVTISVDTSKNQFSLKLSSVTAADTAVYYCARVGHGISYFDLWGRGTLVTVSS VL: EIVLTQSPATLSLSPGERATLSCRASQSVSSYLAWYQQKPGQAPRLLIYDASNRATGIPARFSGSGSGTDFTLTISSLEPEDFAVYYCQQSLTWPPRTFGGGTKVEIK
[out] > 9.64

[in] Assign pKd to the following record: 6273 (antibody, V domains shown, anti-BACE1 IgG) VH: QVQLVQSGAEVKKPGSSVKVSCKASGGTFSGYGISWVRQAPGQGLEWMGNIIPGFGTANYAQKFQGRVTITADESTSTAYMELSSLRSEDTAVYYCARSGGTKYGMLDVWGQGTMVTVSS VL: EIVMTQSPATLSVSPGERATLSCRASQSVSSNIAWYQQKPGQAPRLLIYGASTRATGIPARFSGSGSGTEFTLTISSLQSEDFAVYYCQQLLLWPPRTFGGGTKVEIK
[out] > 9.41

[in] Assign pKd to the following record: 6271 (antibody, V domains shown, anti-BACE1 IgG) VH: QVQLVQSGAEVKKPGSSVKVSCKASGGTISGYGISWVRQAPGQGLEWMGNIIPGFGTANYAQKFQGRVTITADESTSTAYMELSSLRSEDTAVYYCARSGGTKYGMLDVWGQGTMVTVSS VL: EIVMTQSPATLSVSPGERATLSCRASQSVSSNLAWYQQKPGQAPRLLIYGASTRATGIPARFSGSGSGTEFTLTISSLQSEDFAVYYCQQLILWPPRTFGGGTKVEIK
[out] > 9.51

[in] Assign pKd to the following record: 6296 (antibody, V domains shown, anti-BACE1 IgG) VH: QLQLQESGPGLVKPSETLSLTCTVSGGSISSSSYYWGWIRQPPGKGLEWIGNIYYSGSTYYNPSLRGRVTISVDTSKNQFSLKLSSVTAADTAVYYCARLGHGYNYFDLWGRGTLVTVSS VL: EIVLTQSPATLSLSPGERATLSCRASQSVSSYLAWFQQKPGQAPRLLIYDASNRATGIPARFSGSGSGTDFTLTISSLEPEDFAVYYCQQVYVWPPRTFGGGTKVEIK
[out] > 9.62
